- assay_info: Biodistribution of 99mTc complexes in rats
- Type: in vivo, Australian Albino Wistar Rats
- stated_conditions: rat, urine, rats, 10 min, read-out: biodistribution urine
value_type: tissue uptake at 10 min (%ID/g)
Quick note: give the figure in %ID/g, leave out the unit.

Query block: What measured tissue uptake at 10 min goes with "CC(C)(C)c1ccc(O)c(NC(=O)CN(CCN(CC(=O)O)CC(=O)Nc2cc(C(C)(C)C)ccc2O)CC(=O)O)c1" ?
Result block: 0.08

---

- assay_info: Biodistribution of 99mTc complexes in rats
- Assay type: in vivo, Australian Albino Wistar Rats
- stated_conditions: rat, skin, rats, 5 min, read-out: biodistribution skin
Could you mark each record TRUE if its tissue uptake at 5 min falls strictly under 0.4 %ID/g, and FALSE if it equals or exceeds it?

- entry_smiles: "O=C(O)CN(CCN(CC(=O)O)CC(=O)Nc1ccc(Cl)cc1O)CC(=O)Nc1ccc(Cl)cc1O"
  assigned_label: "TRUE"
- entry_smiles: "O=C(O)CN(CCN(CC(=O)O)CC(=O)Nc1cc([N+](=O)[O-])ccc1O)CC(=O)Nc1cc([N+](=O)[O-])ccc1O"
  assigned_label: "FALSE"
- entry_smiles: "O=C(O)CN(CCN(CC(=O)O)CC(=O)Nc1ccccc1O)CC(=O)Nc1ccccc1O"
  assigned_label: "FALSE"

Now turn to the next molecule.
Query block: Below 0.4 %ID/g on tissue uptake at 5 min? Entry "CC(C)(C)c1ccc(O)c(NC(=O)CN(CCN(CC(=O)O)CC(=O)Nc2cc(C(C)(C)C)ccc2O)CC(=O)O)c1"
Result block: TRUE

---

- assay_info: Biodistribution of 99mTc complexes in rats
- Format: in vivo, Australian Albino Wistar Rats
- stated_conditions: rat, thyroid, rats, 3 min, read-out: biodistribution thyroid
- Experimental: A typical method of radiolabelling of the chelator was achieved by dissolving the chelator in a basic solution of saline. The pH was then adjusted to approx. 6 with HCl. Excess stannous chloride was added to the resultant solution followed by one equivalent volume of sodium ^99m TcO4 (10-50 mCi/ml). Final concentration of the chelator was approx. 1 mg/ml. The efficacy of labelling was determined by ITLC-SG. For each product only one main radiochemical species was observed. […]
Threshold rule: tissue uptake at 0.05 h greater than or equal to 0.9 %ID/g is True; below that, False.

Some entries whose results are on file:
- entry_smiles: "O=C(O)CN(CCN(CC(=O)O)CC(=O)Nc1ccc(Cl)cc1O)CC(=O)Nc1ccc(Cl)cc1O"
  assigned_label: "False"
- entry_smiles: "Nc1ccc(O)c(NC(=O)CN(CCN(CC(=O)O)CC(=O)Nc2cc(N)ccc2O)CC(=O)O)c1"
  assigned_label: "True"
- entry_smiles: "CC(C)(C)c1ccc(O)c(NC(=O)CN(CCN(CC(=O)O)CC(=O)Nc2cc(C(C)(C)C)ccc2O)CC(=O)O)c1"
  assigned_label: "True"

Now turn to the next molecule.
Query block: Evaluate "O=C(O)CN(CCN(CC(=O)O)CC(=O)Nc1ccccc1O)CC(=O)Nc1ccccc1O" : tissue uptake at 0.05 h at minimum 0.9 %ID/g?
Result block: True

---

- assay_info: Biodistribution of compound No. 6 in mice (Table 6)
- Assay type: in vivo, Balb/c mice
- stated_conditions: mouse, liver, 5 min, read-out: biodistribution liver
value_type: tissue uptake at 5 min (%ID/g)
Quick note: give the figure in %ID/g, leave out the unit.

Query block: What measured tissue uptake at 5 min goes with "Cc1cc(C)c(O)c(NC(=O)CN(CCN(CC(=O)O)CC(=O)Nc2cc(C)cc(C)c2O)CC(=O)O)c1" ?
Result block: 9.39

---

Measured biodistribution bone by item
- assay_info: Biodistribution of 67Ga complexes in mice
- Type: in vivo, balb/c mice
- stated_conditions: 10 min
Quick note: give the figure in % ID, leave out the unit.

These solved cases illustrate the format of a correct answer.
- entry_smiles: "O=C(O)CN(CCN(CC(=O)O)CC(=O)Nc1ccc(Cl)cc1O)CC(=O)Nc1ccc(Cl)cc1O"
  units_label: "% ID"
  biodistribution bone: 0.74
- entry_smiles: "O=C(O)CN(CCN(CC(=O)O)CC(=O)Nc1ccccc1O)CC(=O)Nc1ccccc1O"
  units_label: "% ID"
  biodistribution bone: 2.20
- entry_smiles: "Cc1cc(C)c(O)c(NC(=O)CN(CCN(CC(=O)O)CC(=O)Nc2cc(C)cc(C)c2O)CC(=O)O)c1"
  units_label: "% ID"
  biodistribution bone: 0.96

Let us move to another entry and its biodistribution bone.
Query block: What measured biodistribution bone goes with "CC(C)(C)c1ccc(O)c(NC(=O)CN(CCN(CC(=O)O)CC(=O)Nc2cc(C(C)(C)C)ccc2O)CC(=O)O)c1" ?
Result block: 0.20

---

- assay_info: Biodistribution of 99mTc complexes in rats
- Format: in vivo, Australian Albino Wistar Rats
- stated_conditions: rat, heart, rats, 10 min, read-out: biodistribution heart
Could you mark each record rule met if its tissue uptake at 10 min falls strictly under 0.3 %ID/g, and rule not met if it equals or exceeds it?

Some entries whose results are on file:
- entry_smiles: "O=C(O)CN(CCN(CC(=O)O)CC(=O)Nc1ccccc1O)CC(=O)Nc1ccccc1O"
  assigned_label: "rule met"
- entry_smiles: "CC(C)(C)c1ccc(O)c(NC(=O)CN(CCN(CC(=O)O)CC(=O)Nc2cc(C(C)(C)C)ccc2O)CC(=O)O)c1"
  assigned_label: "rule not met"
- entry_smiles: "O=C(O)CN(CCN(CC(=O)O)CC(=O)Nc1ccc(Cl)cc1O)CC(=O)Nc1ccc(Cl)cc1O"
  assigned_label: "rule met"

Query block: Below 0.3 %ID/g on tissue uptake at 10 min? Entry "O=C(O)CN(CCN(CC(=O)O)CC(=O)Nc1cc([N+](=O)[O-])ccc1O)CC(=O)Nc1cc([N+](=O)[O-])ccc1O"
Result block: rule not met

Query block: Below 0.3 %ID/g on tissue uptake at 10 min? Entry "Nc1ccc(O)c(NC(=O)CN(CCN(CC(=O)O)CC(=O)Nc2cc(N)ccc2O)CC(=O)O)c1"
Result block: rule not met

---

Measured tissue uptake at 0.5 min by item
- assay_info: Biodistribution of 99mTc complexes in rats
- Assay type: in vivo, Australian Albino Wistar Rats
- stated_conditions: rat, kidneys, rats, 30 sec, read-out: biodistribution kidneys
Quick note: give the figure in %ID/g, leave out the unit.

These solved cases illustrate the format of a correct answer.
- compound: "CC(C)(C)c1ccc(O)c(NC(=O)CN(CCN(CC(=O)O)CC(=O)Nc2cc(C(C)(C)C)ccc2O)CC(=O)O)c1 [Compound 4]"
  units_label: "%ID/g"
  tissue uptake at 0.5 min: 5.57
- compound: "O=C(O)CN(CCN(CC(=O)O)CC(=O)Nc1cc([N+](=O)[O-])ccc1O)CC(=O)Nc1cc([N+](=O)[O-])ccc1O [Compound 3]"
  units_label: "%ID/g"
  tissue uptake at 0.5 min: 3.92

Query block: What measured tissue uptake at 0.5 min goes with Nc1ccc(O)c(NC(=O)CN(CCN(CC(=O)O)CC(=O)Nc2cc(N)ccc2O)CC(=O)O)c1 [Compound 5] ?
Result block: 4.35

Query block: What measured tissue uptake at 0.5 min goes with O=C(O)CN(CCN(CC(=O)O)CC(=O)Nc1ccc(Cl)cc1O)CC(=O)Nc1ccc(Cl)cc1O [Compound 2] ?
Result block: 6.42

Query block: What measured tissue uptake at 0.5 min goes with O=C(O)CN(CCN(CC(=O)O)CC(=O)Nc1ccccc1O)CC(=O)Nc1ccccc1O [Compound 1] ?
Result block: 6.73

---

- assay_info: Biodistribution of 99mTc complexes in rats
- Assay type: in vivo, Australian Albino Wistar Rats
- stated_conditions: rat, kidneys, rats, 10 min, read-out: biodistribution kidneys
Measured tissue uptake at 10 min by item
Quick note: give the figure in %ID/g, leave out the unit.

- entry_smiles: "O=C(O)CN(CCN(CC(=O)O)CC(=O)Nc1ccccc1O)CC(=O)Nc1ccccc1O"
  value_type: "tissue uptake at 10 min"
  readout_number: 2.72

Query block: What measured tissue uptake at 10 min goes with "O=C(O)CN(CCN(CC(=O)O)CC(=O)Nc1ccc(Cl)cc1O)CC(=O)Nc1ccc(Cl)cc1O" ?
Result block: 3.35

Query block: What measured tissue uptake at 10 min goes with "Nc1ccc(O)c(NC(=O)CN(CCN(CC(=O)O)CC(=O)Nc2cc(N)ccc2O)CC(=O)O)c1" ?
Result block: 3.61

Query block: What measured tissue uptake at 10 min goes with "O=C(O)CN(CCN(CC(=O)O)CC(=O)Nc1cc([N+](=O)[O-])ccc1O)CC(=O)Nc1cc([N+](=O)[O-])ccc1O" ?
Result block: 2.1

Query block: What measured tissue uptake at 10 min goes with "CC(C)(C)c1ccc(O)c(NC(=O)CN(CCN(CC(=O)O)CC(=O)Nc2cc(C(C)(C)C)ccc2O)CC(=O)O)c1" ?
Result block: 2.33

---

- assay_info: Biodistribution of 99mTc complexes in rats
- Assay type: in vivo, Australian Albino Wistar Rats
- stated_conditions: rat, pancreas, rats, 30 sec, read-out: biodistribution pancreas
Measured tissue uptake at 0.5 min by item
Quick note: give the figure in %ID/g, leave out the unit.

- entry_smiles: "O=C(O)CN(CCN(CC(=O)O)CC(=O)Nc1cc([N+](=O)[O-])ccc1O)CC(=O)Nc1cc([N+](=O)[O-])ccc1O"
  units_label: "%ID/g"
  tissue uptake at 0.5 min: 0.47

Query block: What measured tissue uptake at 0.5 min goes with "Nc1ccc(O)c(NC(=O)CN(CCN(CC(=O)O)CC(=O)Nc2cc(N)ccc2O)CC(=O)O)c1" ?
Result block: 0.8

Query block: What measured tissue uptake at 0.5 min goes with "CC(C)(C)c1ccc(O)c(NC(=O)CN(CCN(CC(=O)O)CC(=O)Nc2cc(C(C)(C)C)ccc2O)CC(=O)O)c1" ?
Result block: 0.9

Query block: What measured tissue uptake at 0.5 min goes with "O=C(O)CN(CCN(CC(=O)O)CC(=O)Nc1ccc(Cl)cc1O)CC(=O)Nc1ccc(Cl)cc1O" ?
Result block: 0.49

Query block: What measured tissue uptake at 0.5 min goes with "O=C(O)CN(CCN(CC(=O)O)CC(=O)Nc1ccccc1O)CC(=O)Nc1ccccc1O" ?
Result block: 0.49

This collection of values is drawn from patent US5807535A.
